# SYSTEM: T1, human GIP receptor (human, UniProt P48546 22-466)
# T1 sequence (looked up): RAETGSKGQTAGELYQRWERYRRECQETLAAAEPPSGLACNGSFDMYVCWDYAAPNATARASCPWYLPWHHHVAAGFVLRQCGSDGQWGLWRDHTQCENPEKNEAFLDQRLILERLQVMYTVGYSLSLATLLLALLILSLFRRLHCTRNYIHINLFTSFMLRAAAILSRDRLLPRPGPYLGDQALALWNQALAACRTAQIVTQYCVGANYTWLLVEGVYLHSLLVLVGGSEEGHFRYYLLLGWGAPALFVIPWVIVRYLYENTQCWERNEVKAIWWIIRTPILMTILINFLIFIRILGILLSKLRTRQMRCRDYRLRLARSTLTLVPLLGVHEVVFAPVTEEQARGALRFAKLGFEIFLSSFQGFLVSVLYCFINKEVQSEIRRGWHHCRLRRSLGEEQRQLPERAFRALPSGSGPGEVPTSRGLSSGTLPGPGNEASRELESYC
# TEST NAME: cell-based or functional assay
*1 amine or outer side, *2 acyl side, *3 side chain or, on linkers, in order; H or OH if unused. Where no end group is shown, it is not given here. Side-chain parts run from the residue outwards. [ ]: non-standard residue; d: D form. The star is where a group is joined. C20 diacid = O=C(O)CCCCCCCCCCCCCCCCCCC(=O)*; C18 diacid = O=C(O)CCCCCCCCCCCCCCCCC(=O)*; γGlu = O=C(O)[C@H](CCC(=O)[*:2])N[*:1]; Trx = NC[C@H]1CC[C@H](C(=O)O)CC1; Nle = CCCC[C@H](N)C(=O)O; AEEA = NCCOCCOCC(=O)O; Aib = CC(C)(N)C(=O)O
READOUT NAME: EC50, hGIP-R CRE Luc, 0.2% HSA

Reference set, count: 4
# BINDER, EC50, hGIP-R CRE Luc, 0.2% HSA
data = [
    ("HAEGTFTSDVSSYLEGQAAKEFIAWLVKGRG (ligand) [hGLP-1(7-37)]", "> 100 nM"),
    ("Y[Aib]EGTFISDYSIA[Nle]DKIRQQDFVK([γGlu-γGlu-γGlu-Trx-C20 diacid])WLLAQKG", "0.0721 nM"),
    ("Y[Aib]EGTFISDYSIA[Nle]DKIHQQDFVK([γGlu-γGlu-γGlu-C18 diacid])WLLAQKG", "0.0499 nM"),
    ("Ac-[dY][Aib]EGTFISDYSIA[Nle]DKIRQQDFVK([γGlu-γGlu-γGlu-γGlu-Trx-C20 diacid])WLLAQKP-NH2", "0.0261 nM"),
]

Please examine the following record next.
Req: Item under review: Ac-[dY]AEGTFISDYSIA[Nle]DKIRQQDFVK([AEEA-AEEA-γGlu-γGlu-γGlu-C18 diacid])WLLAQKG . Reported EC50, hGIP-R CRE Luc, 0.2% HSA?
Resp: 0.0431 nM

Entry source: patent US20220000982A1
